Every entry's value here was drawn from ChEMBL document CHEMBL4251703.

study target: Signal transducer and activator of transcription 3 (Mus musculus) (UniProt P42227)
Sequence (P42227 whole entry): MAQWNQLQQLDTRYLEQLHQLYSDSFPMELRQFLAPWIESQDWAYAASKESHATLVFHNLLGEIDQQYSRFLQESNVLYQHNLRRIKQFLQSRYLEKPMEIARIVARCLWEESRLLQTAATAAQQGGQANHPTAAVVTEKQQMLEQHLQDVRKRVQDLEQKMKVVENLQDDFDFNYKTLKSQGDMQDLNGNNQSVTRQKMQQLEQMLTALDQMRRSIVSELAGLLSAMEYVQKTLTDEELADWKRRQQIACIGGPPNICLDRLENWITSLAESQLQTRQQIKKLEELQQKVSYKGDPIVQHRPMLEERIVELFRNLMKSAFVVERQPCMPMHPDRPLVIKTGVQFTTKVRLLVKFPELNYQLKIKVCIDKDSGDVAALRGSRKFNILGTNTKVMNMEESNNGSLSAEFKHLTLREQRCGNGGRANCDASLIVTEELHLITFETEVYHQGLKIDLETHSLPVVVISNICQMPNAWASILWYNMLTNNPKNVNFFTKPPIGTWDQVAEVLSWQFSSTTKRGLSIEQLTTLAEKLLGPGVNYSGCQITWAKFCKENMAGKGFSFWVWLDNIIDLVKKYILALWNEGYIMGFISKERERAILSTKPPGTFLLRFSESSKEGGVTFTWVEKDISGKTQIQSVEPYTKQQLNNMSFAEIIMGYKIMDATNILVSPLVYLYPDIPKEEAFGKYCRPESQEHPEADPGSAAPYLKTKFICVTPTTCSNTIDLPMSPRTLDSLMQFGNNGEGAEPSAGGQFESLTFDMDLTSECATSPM
method description: Inhibition of STAT3 DNA binding activity in mouse NIH/3T3 nuclear extract preincubated for 30 mins followed by [32P]hSIE addition measured after 30 mins by electrophoretic mobility shift assay
Calls of active or inactive are those of the source. The rule behind the calls is not given here.
Answer with one of the outcomes given here: active, inactive

Solved entries:
O=C(O)c1ccc(N(Cc2ccc(C3CCCCC3)cc2)C(=O)[C@H]2CCCN2S(=O)(=O)c2c(F)cc(F)c(F)c2F)cc1O: inactive
CN([C@H](CO)C(=O)N(Cc1ccc(C2CCCCC2)cc1)c1ccc(C(=O)NO)cc1)S(=O)(=O)c1c(F)c(F)c(F)c(F)c1F: active

Req: So what was the verdict on "Cc1cc(C(=O)O)ccc1N(Cc1ccc(C2CCCCC2)cc1)C(=O)CN(C)S(=O)(=O)c1c(F)c(F)c(F)c(F)c1F" in this test?
Resp: inactive

Req: Would you mind telling me which call this test gave "CC[C@H](C(=O)N(Cc1ccc(C2CCC(F)(F)CC2)cc1)c1ccc(C(=O)O)c(O)c1)N(C)S(=O)(=O)c1c(F)c(F)c(F)c(F)c1F" ?
Resp: inactive

Req: What is the recorded call for this compound in the test? "CN(CC(=O)N(Cc1ccc(C2CCCCC2)cc1)c1nc(C(=O)O)co1)S(=O)(=O)c1c(F)c(F)c(F)c(F)c1F"
Resp: inactive

Req: Give the logged outcome of this assay for the following compound: "CN([C@H](CO)C(=O)N(Cc1ccc(C2CCCCC2)cc1)c1ccc(C(=O)O)c(O)c1)S(=O)(=O)c1c(F)c(F)c(F)c(F)c1F"
Resp: active

Req: Look up the recorded call for "CN([C@@H](CCO)C(=O)N(Cc1ccc(C2CCCCC2)cc1)c1ccc(C(=O)O)c(O)c1)S(=O)(=O)c1c(F)c(F)c(F)c(F)c1F" in this test.
Resp: inactive

---

study target: Signal transducer and activator of transcription 3 (Mus musculus)
method description: Inhibition of STAT3 DNA binding activity in mouse NIH/3T3 nuclear extract preincubated for 30 mins followed by [32P]hSIE addition measured after 30 mins by electrophoretic mobility shift assay
Active and inactive are the calls of the source. No cut-off for these calls is given here.
One label from this list, please: class 1 (active), class 0 (inactive)

Req: Which outcome was assigned to "CN([C@H](CO)C(=O)N(Cc1ccc(C2CCCCC2)cc1)c1ccc(C(=O)O)cc1)S(=O)(=O)c1c(F)c(F)c(F)c(F)c1F" in this test?
Resp: class 1

Req: For "CC[C@H](C(=O)N(Cc1ccc(C2CCCCC2)cc1)c1ccc(C(=O)O)c(O)c1)N(C)S(=O)(=O)c1c(F)c(F)c(F)c(F)c1F" , what call appears in the results of this test?
Resp: class 1

Req: Returns: the outcome recorded for "CN([C@@H](CO)C(=O)N(Cc1ccc(C2CCCCC2)cc1)c1ccc(C(=O)O)c(O)c1)S(=O)(=O)c1c(F)c(F)c(F)c(F)c1F" in this assay.
Resp: class 0

Req: # outcome recorded in this test, key = "CN(CC(=O)N(Cc1ccc(C2CCCCC2)cc1)c1ccc(C(=O)O)c(O)c1)C(=O)c1c(F)c(F)c(F)c(F)c1F"
Resp: class 0

---

study target: Signal transducer and activator of transcription 3 (Mus musculus) (UniProt P42227)
method description: Inhibition of STAT3 DNA binding activity in mouse NIH/3T3 nuclear extract preincubated for 30 mins followed by [32P]hSIE addition measured after 30 mins by electrophoretic mobility shift assay
The source made the active and inactive calls. The calls are words filed in the database; no cut-off is given here.
measure name: inhibition

Some solved cases for reference:
CC[C@@H](C(=O)N(Cc1ccc(C2CCCCC2)cc1)c1ccc(C(=O)O)c(O)c1)N(C)S(=O)(=O)c1c(F)c(F)c(F)c(F)c1F: inactive
C[C@H](C(=O)N(Cc1ccc(C2CCCCC2)cc1)c1ccc2c(c1)CNC2=O)N(C)S(=O)(=O)c1c(F)c(F)c(F)c(F)c1F: inactive
CN(CC(=O)N(Cc1ccc(C2CCOCC2)cc1)c1ccc(C(=O)O)cc1)S(=O)(=O)c1c(F)c(F)c(F)c(F)c1F: inactive
O=C(O)c1ccc(N(Cc2ccc(C3CCCCC3)cc2)C(=O)[C@H]2CCCN2C(=O)c2c(F)c(F)c(F)c(F)c2F)cc1O: inactive

Pending compound:
Req: Give the reported inhibition for this compound. "O=C(O)c1ccc(N(Cc2ccc(C3CCCCC3)cc2)C(=O)[C@H]2CCCN2Cc2c(F)c(F)c(F)c(F)c2F)cc1O"
Resp: inactive

---

method description: Solubility of the compound in PBS at pH 7.4
Type: physicochemical
measure name: solubility (µg/mL)
Give the quantity in µg/mL, number only.

Examples with their reported solubility follow.
CN(CC(=O)N(Cc1ccc(C2CCCCC2)cc1)c1ccc(C(=O)O)cc1)S(=O)(=O)c1c(F)c(F)c(F)c(F)c1F: 7.6
O=C([O-])c1ccc(N(Cc2ccc(C3CCOCC3)cc2)C(=O)[C@H]2CCCN2S(=O)(=O)c2c(F)c(F)c(F)c(F)c2F)cc1O.[Na+]: 123

From here, focus on the item given below.
Req: Read the entry "CN(CC(=O)N(Cc1ccc(C2CCCCC2)cc1)c1ccc(C(=O)NO)cc1)S(=O)(=O)c1c(F)c(F)c(F)c(F)c1F" and write its reported solubility.
Resp: 0.3

---

method description: Apparent permeability of the compound from apical to basolateral side in human Caco2 cells
Assay type: ADME, cell-based
condition context: Caco-2
In this section we review reported Papp A→B values for a set of compounds.
Answer in ×10⁻⁶ cm/s, number only, no unit symbol.

O=C(O)c1ccc(N(Cc2ccc(C3CCCCC3)cc2)C(=O)[C@@H]2CCCN2S(=O)(=O)c2c(F)c(F)c(F)c(F)c2F)c(F)c1: 0.1

Then there is this compound:
Req: Look up Papp A→B of "O=C([O-])c1ccc(N(Cc2ccc(C3CCOCC3)cc2)C(=O)[C@H]2CCCN2S(=O)(=O)c2c(F)c(F)c(F)c(F)c2F)cc1O.[Na+]" and report it.
Resp: 0.2

---

study target: Signal transducer and activator of transcription 3 (Mus musculus)
method description: Inhibition of STAT3 DNA binding activity in mouse NIH/3T3 nuclear extract preincubated for 30 mins followed by [32P]hSIE addition measured after 30 mins by electrophoretic mobility shift assay
Active and inactive are the calls of the source. The rule behind the calls is not given here.
measure name: inhibition

Solved entries:
CN([C@@H](CN)C(=O)N(Cc1ccc(C2CCCCC2)cc1)c1ccc(C(=O)O)c(O)c1)S(=O)(=O)c1c(F)c(F)c(F)c(F)c1F: inactive
CN(CC(=O)N(Cc1ccc(C2CCNCC2)cc1)c1ccc(C(=O)O)c(O)c1)S(=O)(=O)c1c(F)c(F)c(F)c(F)c1F: inactive
CN(CC(=O)N(Cc1ccc(N2CCCCC2)cc1)c1ccc(C(=O)O)cc1)S(=O)(=O)c1c(F)c(F)c(F)c(F)c1F: inactive
CN(CC(=O)N(Cc1ccc(C2=CCCCCC2)cc1)c1ccc(C(=O)O)cc1)S(=O)(=O)c1c(F)c(F)c(F)c(F)c1F: inactive
CN([C@@H](CC(=O)O)C(=O)N(Cc1ccc(C2CCCCC2)cc1)c1ccc(C(=O)O)c(O)c1)S(=O)(=O)c1c(F)c(F)c(F)c(F)c1F: inactive

Req: # return recorded inhibition for entry "CN(CC(=O)N(Cc1ccc(C2CCCCC2)cc1)c1ncc(C(=O)O)o1)S(=O)(=O)c1c(F)c(F)c(F)c(F)c1F"
Resp: inactive

Req: Quote inhibition reported for "Cc1cc(C(=O)O)cc(C)c1N(Cc1ccc(C2CCCCC2)cc1)C(=O)CN(C)S(=O)(=O)c1c(F)c(F)c(F)c(F)c1F" please.
Resp: inactive

---

method description: Solubility of the compound in simulated intestinal fluid at pH 6.8
Format: physicochemical
measure name: solubility (µg/mL)
Answer format: numeric, µg/mL implied, no suffix.

O=C([O-])c1ccc(N(Cc2ccc(C3CCOCC3)cc2)C(=O)[C@H]2CCCN2S(=O)(=O)c2c(F)c(F)c(F)c(F)c2F)cc1O.[Na+]: 117
CN(CC(=O)N(Cc1ccc(C2CCCCC2)cc1)c1ccc(C(=O)O)cc1)S(=O)(=O)c1c(F)c(F)c(F)c(F)c1F: 14
C[C@H](C(=O)N(Cc1ccc(C2CCCCC2)cc1)c1ccc(C(=O)[O-])c(O)c1)N(C)S(=O)(=O)c1c(F)c(F)c(F)c(F)c1F.[Na+]: 127

Lab note: next molecule to report on.
Req: Tell me solubility reported for "CN(CC(=O)N(Cc1ccc(C2CCCCC2)cc1)c1ccc(C(=O)NO)cc1)S(=O)(=O)c1c(F)c(F)c(F)c(F)c1F"
Resp: 74

---

study target: UniProt:P42227
method description: Inhibition of STAT3 DNA binding activity in mouse NIH/3T3 nuclear extract preincubated for 30 mins followed by [32P]hSIE addition measured after 30 mins by electrophoretic mobility shift assay
Activity calls are given as the source filed them. The calls are words filed in the database; no cut-off is given here.
Assign a class; possible classes are y for active, n for inactive

Known results for molecules:
CN(CC(=O)N(Cc1ccc(C2CCCCC2)cc1)c1ccc(C(=O)O)[n+]([O-])c1)S(=O)(=O)c1c(F)c(F)c(F)c(F)c1F: n
CN(CC(=O)N(Cc1ccc(C2CCOCC2)cc1)c1ccc(C(=O)NO)c(O)c1)S(=O)(=O)c1c(F)c(F)c(F)c(F)c1F: n
C[C@@H](O)[C@@H](C(=O)N(Cc1ccc(C2CCCCC2)cc1)c1ccc(C(=O)O)c(O)c1)N(C)S(=O)(=O)c1c(F)c(F)c(F)c(F)c1F: n
C[C@H](O)[C@H](C(=O)N(Cc1ccc(C2CCCCC2)cc1)c1ccc(C(=O)O)c(O)c1)N(C)S(=O)(=O)c1c(F)c(F)c(F)c(F)c1F: y
C[C@H](C(=O)N(Cc1ccc(C2CCCCC2)cc1)c1ccc(C(=O)O)c(F)c1)N(C)S(=O)(=O)c1c(F)c(F)c(F)c(F)c1F: n
O=C(O)c1ccc(N(Cc2ccc(C3CCCCC3)cc2)C(=O)[C@H]2CCCN2S(=O)(=O)c2cc(F)cc(F)c2F)cc1O: n

Req: Which outcome did this test record for the molecule "CN(CC(=O)N(Cc1ccc(C2CCOCC2)cc1)c1ccc(C(=O)O)c(O)c1)S(=O)(=O)c1c(F)c(F)c(F)c(F)c1F" ?
Resp: n
